System: RAW264.7
Test: Cytotoxicity against LPS-stimulated mouse RAW264.7 cells at 20 uM after 24 hrs by MTT assay
Format: cell-based
Conditions: raw264.7, 24 h
Readout name: Activity

Example entries and their recorded answers appear below.
CC(C)(O)[C@H]1CC[C@@](C)([C@H]2CC[C@]3(C)[C@@H]2/C(=N/O)C[C@@H]2[C@@]4(C)CC[C@H](O)C(C)(C)[C@@H]4CC[C@]23C)O1 ... Non-Toxic
CC(C)(O)[C@H]1CC[C@@](C)([C@H]2CC[C@]3(C)[C@@H]2[C@@H](N)C[C@@H]2[C@@]4(C)CC[C@H](O)C(C)(C)[C@@H]4CC[C@]23C)O1 ... Toxic
CC(C)(O)[C@@H]1CC[C@@](C)([C@H]2CC[C@]3(C)[C@@H]2[C@H](O)C[C@@H]2[C@@]4(C)CC/C(=N\O)C(C)(C)[C@@H]4CC[C@]23C)O1 ... Non-Toxic
CC(C)(O[Si](C)(C)C(C)(C)C)[C@H]1CC[C@@](C)([C@H]2CC[C@]3(C)[C@@H]2[C@H](O)C[C@@H]2[C@@]4(C)CC[C@H](O)C(C)(C)[C@@H]4CC[C@]23C)O1 ... Non-Toxic
CCCCCC(=O)O[C@H]1CC[C@]2(C)[C@H]3C[C@@H](O)[C@@H]4[C@@H]([C@]5(C)CC[C@H](C(C)(C)O)O5)CC[C@@]4(C)[C@]3(C)CC[C@H]2C1(C)C ... Non-Toxic

Kindly review the next molecule as well.
input: // lookup Activity for "CC(C)(O)[C@H]1CC[C@@](C)([C@H]2CC[C@]3(C)[C@@H]2C(=O)C[C@@H]2[C@@]4(C)CCC(=O)C(C)(C)[C@@H]4CC[C@]23C)O1"
output: Non-Toxic
